system: STEME (common chickweed); experiment: Pre-emergence herbicidal activity, cool season; type: in vivo, Stellaria media; conditions: lowest tested rate with 80% or greater inhibition; rates 300, 100, 30, 10 g/ha; about 14 days
Reported Pre-emergence activity GR80, STEME values are given for each entry in this list.

- Compound: "CCSC(F)(F)S(=O)(=O)c1ncn(C(=S)N(CC)CC)n1 [Example 58]"
  Pre-emergence activity GR80, STEME, g/ha: 300
- Compound: "C=CCN(C)C(=O)n1cnc(S(=O)(=O)C(F)(F)C(F)F)n1 [Example 65]"
  Pre-emergence activity GR80, STEME, g/ha: 300
- Compound: "CN(C)C(=O)n1cnc(S(=O)(=O)C(F)(F)C(F)F)n1 [Example 61]"
  Pre-emergence activity GR80, STEME, g/ha: 300
- Compound: "CCN(CC)C(=O)n1cnc(S(=O)(=O)C(F)(F)C(F)F)n1 [Example 16]"
  Pre-emergence activity GR80, STEME, g/ha: 300
- Compound: "CCN(CC)C(=O)n1cnc(S(=O)(=O)C(F)(F)Br)n1 [Example 1]"
  Pre-emergence activity GR80, STEME, g/ha: 100

----------
test system: AVEFA (wild oat); assay: Pre-plant incorporated (PPI) herbicidal activity, cool season; format: in vivo, Avena fatua; settings: Avena fatua; weed, PPI application, 300 g/ha; read-out: Percent inhibition AVEFA

- Compound: "C=C(C)CC(F)(F)S(=O)(=O)c1ncn(C(=O)N(CC)CC)n1 [Example 18]"
  System Tested: "AVEFA (wild oat)"
  inhibition at 300 g/ha: "50%"
- Compound: "CCN(CC)C(=O)n1cnc(S(=O)(=O)C(F)(F)Br)n1 [Example 1]"
  System Tested: "AVEFA (wild oat)"
  inhibition at 300 g/ha: "95%"
- Compound: "C=C(Br)CC(F)(F)S(=O)(=O)c1ncn(C(=O)N(CC)CC)n1 [Example 19]"
  System Tested: "AVEFA (wild oat)"
  inhibition at 300 g/ha: "70%"
- Compound: "C=CCC(F)(F)S(=O)(=O)c1ncn(C(=O)N(CC)CC)n1 [Example 17]"
  System Tested: "AVEFA (wild oat)"
  inhibition at 300 g/ha: "75%"
- Compound: "CCSC(F)(F)S(=O)(=O)c1ncn(C(=O)N(CC)CC)n1 [Example 8]"
  System Tested: "AVEFA (wild oat)"
  inhibition at 300 g/ha: "95%"

----------
test system: PANMI (wild proso millet); assay: Pre-plant incorporated (PPI) herbicidal activity, warm season; format: in vivo, Panicum miliaceum; conditions: Panicum miliaceum; PPI application, 30 g/ha; read-out: Percent inhibition PANMI

- Substance Smiles: "CCN(CC)C(=O)n1cnc(S(=O)(=O)C(F)F)n1"
  System Tested: "PANMI (wild proso millet)"
  Units Of Measure: "%"
  inhibition at 30 g/ha: 70
- Substance Smiles: "CCN(CC)C(=O)n1cnc(S(=O)(=O)C(F)(F)Br)n1"
  System Tested: "PANMI (wild proso millet)"
  Units Of Measure: "%"
  inhibition at 30 g/ha: 60
- Substance Smiles: "C=CCC(F)(F)S(=O)(=O)c1ncn(C(=O)N(CC)CC)n1"
  System Tested: "PANMI (wild proso millet)"
  Units Of Measure: "%"
  inhibition at 30 g/ha: 100
- Substance Smiles: "C=C(C)CC(F)(F)S(=O)(=O)c1ncn(C(=O)N(CC)CC)n1"
  System Tested: "PANMI (wild proso millet)"
  Units Of Measure: "%"
  inhibition at 30 g/ha: 40
- Substance Smiles: "C=C(Br)CC(F)(F)S(=O)(=O)c1ncn(C(=O)N(CC)CC)n1"
  System Tested: "PANMI (wild proso millet)"
  Units Of Measure: "%"
  inhibition at 30 g/ha: 60
- Substance Smiles: "CCSC(F)(F)S(=O)(=O)c1ncn(C(=O)N(CC)CC)n1"
  System Tested: "PANMI (wild proso millet)"
  Units Of Measure: "%"
  inhibition at 30 g/ha: 100
